Target: Tyrosinase extracted from mushrooms
Assay: Inhibitory activity against tyrosinase
Conditions: L-tyrosine substrate, DOPA cofactor, pH 6.8, 37° C., 10 minutes, absorbance at 475 nm
Below, each entry is listed with its recorded pIC50.
In simple prose, pIC50 is minus the logarithm base ten of a concentration in moles per litre.

Can you look up pIC50 on Tyrosinase extracted from mushrooms for O=C1O[C@H]([C@@H](O)CO)C(O)=C1O ?
3.33

Shifting focus to the compound that follows.
Can you look up pIC50 on Tyrosinase extracted from mushrooms for CCOC1=C(O)C(=O)O[C@@H]1[C@@H](O)CO [3-O-Ethyl-ascorbic acid, reference compound] ?
2.01
